- Tested on: freshly isolated rat hepatocytes
- assay.name: Uptake into freshly isolated rat hepatocytes
- condition.set: rat hepatocyte uptake; test item and Rifampicine 1:1, each 100 μM
Please respond with reported Inhibition Rifampicine for every item in the list.

Query: Record CCOc1ccc(CC(CN(CCN(CC(=O)[O-])CC(=O)[O-])CC(=O)[O-])N(CC(=O)[O-])CC(=O)[O-])cc1.[Gd+3].[Na+].[Na+] (stereo not drawn) [RC1, gadoxetate disodium, reference compound] : what is its Inhibition Rifampicine with freshly isolated rat hepatocytes?
Result: 97 % inhibition

Query: What do you get for CCOCCOCCOc1ccc(CC(C(=O)O)N2CCN(CC(=O)[O-])CCN(CC(=O)[O-])CCN(CC(=O)[O-])CC2)cc1.[Gd+3] (stereo not drawn) ?
Result: 85 % inhibition

Query: Please do the same for CCOCCOCCOc1ccc(CC(C(=O)O)N2CCN(CC(=O)[O-])CCN(CC(=O)[O-])CCN(CC(=O)[O-])CC2)nc1.[Gd+3] (stereo not drawn) as well.
Result: 73 % inhibition

Query: Subsequent entry: CCOCCOCCOc1ccc(CCCC(C(=O)O)N2CCN(CC(=O)[O-])CCN(CC(=O)[O-])CCN(CC(=O)[O-])CC2)cc1.[Gd+3] (stereo not drawn)
Result: 96 % inhibition

Query: Also CCOc1ccc(CCOCC(C(=O)O)N2CCN(CC(=O)[O-])CCN(CC(=O)[O-])CCN(CC(=O)[O-])CC2)cc1.[Gd+3] (stereo not drawn) ?
Result: 93 % inhibition

Query: Would you mind doing CCOCCOCCOc1ccc(CCC[C@H](C(=O)O)N2CCN([C@H](CO)C(=O)[O-])CCN([C@H](CO)C(=O)[O-])CCN([C@H](CO)C(=O)[O-])CC2)cc1.[Gd+3] as well?
Result: 92 % inhibition

----------
- assay.name: Relaxivity measurements at 1.41 T in human plasma
- Assay type: physicochemical
- condition.set: 37° C., normalized to Gd
- Description: The T1 relaxation times were determined using the standard inversion recovery (IR) method with a fixed relaxation delay of at least 5×T1. The variable inversion time (TI) was calculated automatically by the standard software of the MiniSpec mq60 (8 steps). […] The relaxivities n (where i=1, 2) were calculated based on the measured relaxation rates Ri in water and plasma: […]
Would you mind telling me the reported r1 human plasma of each entry?
Reply numerically in L/mmol/s, unit not repeated.

Query: Record request: r1 human plasma value, item O=C([O-])CN1CCN(CC(=O)[O-])CCN([C@H](Cc2ccc(OCC(F)(F)F)cc2)C(=O)O)CCN(CC(=O)[O-])CC1.[Gd+3]
Result: 7.8

Query: # repeat for CCCCOc1cccc(CCC[C@@H](C(=O)O)N2CCN([C@@H](CO)C(=O)[O-])CCN([C@@H](CO)C(=O)[O-])CCN([C@@H](CO)C(=O)[O-])CC2)c1.[Gd+3]
Result: 18.0

Query: Same lookup for CCOCCOCCOc1ccc(CC(C(=O)O)N2CCN(CC(=O)[O-])CCN(C(C)C(=O)[O-])CCN(CC(=O)[O-])CC2)cc1.[Gd+3] (single isomer, unassigned) [Example 6] , please.
Result: 6.6

----------
- assay.target: OATP1B3 (Homo sapiens)
- Sequence (Q9NPD5 whole entry): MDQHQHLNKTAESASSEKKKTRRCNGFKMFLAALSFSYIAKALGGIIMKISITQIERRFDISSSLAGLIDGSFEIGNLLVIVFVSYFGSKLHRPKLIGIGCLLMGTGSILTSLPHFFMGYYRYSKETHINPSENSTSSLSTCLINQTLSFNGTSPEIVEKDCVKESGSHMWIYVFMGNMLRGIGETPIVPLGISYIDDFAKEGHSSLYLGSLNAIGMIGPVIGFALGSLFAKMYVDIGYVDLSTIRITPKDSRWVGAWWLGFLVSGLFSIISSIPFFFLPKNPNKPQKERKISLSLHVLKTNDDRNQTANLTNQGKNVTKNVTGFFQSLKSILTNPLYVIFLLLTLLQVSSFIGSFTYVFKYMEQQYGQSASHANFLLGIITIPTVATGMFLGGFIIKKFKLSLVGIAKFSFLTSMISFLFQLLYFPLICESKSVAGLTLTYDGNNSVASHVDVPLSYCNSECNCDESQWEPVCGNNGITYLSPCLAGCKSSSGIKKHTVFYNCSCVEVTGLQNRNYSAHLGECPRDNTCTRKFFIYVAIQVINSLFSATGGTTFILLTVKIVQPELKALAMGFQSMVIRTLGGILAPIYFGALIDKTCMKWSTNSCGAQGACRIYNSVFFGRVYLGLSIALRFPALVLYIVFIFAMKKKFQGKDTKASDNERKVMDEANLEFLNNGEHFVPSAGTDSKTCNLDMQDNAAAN
- assay.name: Uptake into stable transfected OATP1B3 HEK 293 cells
- Assay type: cell-based
- condition.set: uptake into OATP1B3-HEK 293 cells
endpoint.label: Inhibition Rifampicine (% inhibition)
State the answer as a number, implicitly in % inhibition.

Query: Can you look up the measured Inhibition Rifampicine of CCOCCOCCOc1ccc(CC(C(=O)[O-])N2CCN(CC(=O)[O-])CCN(C(CC)C(=O)O)CCN(CC(=O)[O-])CC2)cc1.[Gd+3] (stereo not shown) [Example 43] for me?
Result: 99

Query: Also CCOCCOc1ccc(CC(C(=O)O)N2CCN(CC(=O)[O-])CCN(C(CC)C(=O)[O-])CCN(CC(=O)[O-])CC2)cc1.[Gd+3] (single isomer, unassigned) [Example 8] ?
Result: 99

Query: Do the same for CCOCCOCCOc1ccc(CCC[C@@H](C(=O)O)N2CCN([C@H](CO)C(=O)[O-])CCN([C@H](CO)C(=O)[O-])CCN([C@H](CO)C(=O)[O-])CC2)cc1.[Gd+3] [Example 20] please
Result: 99

Query: Repeat for the following compound: CCOCCOCCOc1ccc(CC(C(=O)O)N2CCN(CC(=O)[O-])CCN(CC(=O)[O-])CCN(CC(=O)[O-])CC2)cc1.[Gd+3] (stereo not shown) [Example 2]
Result: 80

Query: CCCC(C(=O)[O-])N1CCN(CC(=O)[O-])CCN(C(Cc2ccc(OCC)cc2)C(=O)O)CCN(CC(=O)[O-])CC1.[Gd+3] (stereo not shown) [Example 29] , same question.
Result: 99

Query: Follow-up item: CCOCCOCCOc1ccc(C[C@H](C(=O)O)N2CCN(CC(=O)[O-])CCN(CC(=O)[O-])CCN(CC(=O)[O-])CC2)cc1.[Gd+3] [Example 4]
Result: 98

Query: How about this compound: O=C([O-])CN1CCN(CC(=O)[O-])CCN(C(Cc2ccc(OCC(F)(F)C(F)F)cc2)C(=O)O)CCN(CC(=O)[O-])CC1.[Gd+3] (stereo not shown) [Example 46]
Result: 97

Query: Next up: CCOCCOCCOc1ccc(CCC[C@@H](C(=O)O)N2CCN([C@@H](CO)C(=O)[O-])CCN([C@H](CO)C(=O)[O-])CCN([C@@H](CO)C(=O)[O-])CC2)cc1.[Gd+3] [Example 35]
Result: 98

Query: Check CCOCCOCCOc1ccc(CC(C(=O)O)N2CCN(C(CO)C(=O)[O-])CCN(C(CO)C(=O)[O-])CCN(C(CO)C(=O)[O-])CC2)cc1.[Gd+3] (stereo not shown) [Example 22] too.
Result: 96

Query: Record: CCOCCOCCOCCOc1ccc(CC(C(=O)O)N2CCN(CC(=O)[O-])CCN(C(CO)C(=O)[O-])CCN(CC(=O)[O-])CC2)cc1.[Gd+3] (stereo not shown) [Example 42]
Result: 91

Query: Same for CCOCCOCCOc1ccc(C[C@@H](C(=O)O)N2CCN(CC(=O)[O-])CCN(CC(=O)[O-])CCN(CC(=O)[O-])CC2)cc1.[Gd+3] [Example 3]
Result: 89

Query: Another: O=C([O-])CN(CCN(CC(=O)[O-])CC(=O)[O-])CCN(CC(=O)[O-])C(COCc1ccccc1)C(=O)[O-].[Gd+3].[H+].[H+] (stereo not shown) [RC2, gadobenic acid, reference compound]
Result: 87

Query: Try this compound too: CCOCCOCCOc1ccc(CCC[C@@H](C(=O)O)N2CCN(C(CO)C(=O)[O-])CCN(C(CO)C(=O)[O-])CCN(C(CO)C(=O)[O-])CC2)cc1.[Gd+3] (mixture of isomers) [Example 21]
Result: 94

Query: One more compound: CCCCOc1ccc(CC(C(=O)O)N2CCN(CC(=O)[O-])CCN(CC(=O)[O-])CCN(CC(=O)[O-])CC2)cc1.[Gd+3] (stereo not shown) [Example 14]
Result: 97

Query: Ok, now CCCC(C(=O)[O-])N1CCN(CC(=O)[O-])CCN(C(Cc2ccc(OCC)cc2)C(=O)O)CCN(CC(=O)[O-])CC1.[Gd+3] (stereo not shown) [Example 30]
Result: 98

Query: And for CCOCCOCCOc1ccc(CCC[C@@H](C(=O)O)N2CCN([C@H](CO)C(=O)[O-])CCN([C@@H](CO)C(=O)[O-])CCN([C@@H](CO)C(=O)[O-])CC2)cc1.[Gd+3] [Example 50] ?
Result: 93

Query: What would you report for CCOCCOCCOCCOc1ccc(CC(C(=O)O)N2CCN(CC(=O)[O-])CCN(CC(=O)[O-])CCN(CC(=O)[O-])CC2)cc1.[Gd+3] (stereo not shown) [Example 10] ?
Result: 95

Query: Same question for CCOc1ccc(CCCC(C(=O)O)N2CCN(CC(=O)[O-])CCN(CC(=O)[O-])CCN(CC(=O)[O-])CC2)cc1.[Gd+3] (stereo not shown) [Example 28] please.
Result: 97

Query: // query: CCOCCOCCOCCOc1ccc(C[C@@H](C(=O)O)N2CCN(CC(=O)[O-])CCN(CC(=O)[O-])CCN(CC(=O)[O-])CC2)cc1.[Gd+3] [Example 11]
Result: 73

Query: Now the same for CCOCCOCCOc1cc(CC(C(=O)O)N2CCN(CC(=O)[O-])CCN(CC(=O)[O-])CCN(CC(=O)[O-])CC2)cc(OCCOCCOCC)c1.[Gd+3] (stereo not shown) [Example 39]
Result: 88

Query: Field entry: CCOCCOCCOc1ccc(CCC[C@@H](C(=O)O)N2CCN([C@H](CO)C(=O)[O-])CCN([C@H](CO)C(=O)[O-])CCN([C@@H](CO)C(=O)[O-])CC2)cc1.[Gd+3] [Example 49]
Result: 94

Query: Next entry: CCOCCOCCOc1ccc(CC(C(=O)O)N2CCN(CC(=O)[O-])CCN(C(CO)C(=O)[O-])CCN(CC(=O)[O-])CC2)cc1.[Gd+3] (stereo not shown) [Example 41]
Result: 74
